Please respond with reported λem for every item in the list.
assay: Ground state depletion (GSDIM) pump-probe measurements in PVA matrix; type: physicochemical; conditions: PVA matrix table
Numeric only. Scale: nm

# query: λem of entry Nc1c(F)cc2c(c1S(=O)(=O)O)Oc1c(cc(F)c(N)c1S(=O)(=O)O)C21OC(=O)c2ccccc21 [Compound 12, 2,7-Difluoro-4,5-disulforhodamine] 512

# query: λem of entry COC(=O)CCN(C)C(=O)c1ccccc1-c1c2ccc(=NCC(F)(F)F)cc-2oc2cc(NCC(F)(F)F)ccc12 [Compound 44-Me] 534

# query: λem of entry CN(CCC(=O)O)C(=O)c1ccccc1-c1c2ccc(=NCC(F)(F)F)c(S(=O)(=O)O)c-2oc2c(S(=O)(=O)O)c(NCC(F)(F)F)ccc12 [Compound 16a] 530

# query: λem of entry O=C(O)c1ccc2c(c1)C(=O)OC21c2ccc(NCC(F)(F)F)c(S(=O)(=O)O)c2Oc2c1ccc(NCC(F)(F)F)c2S(=O)(=O)O [Compound 17] 524

---

assay: Spectral properties of the fluorinated rhodamines (absorption, emission, quantum yield, lifetime); assay type: physicochemical; details: methanol
Marks after values point to notes of the source that are not given here.
Please respond with reported ABSORPTION λMAX for every item in the list.

# query: ABSORPTION λMAX of entry CNc1cc2c(cc1F)C1(OC(=O)c3ccccc31)c1cc(F)c(NC)cc1O2 [Compound 23, 2,7-Difluoro-N,N′-dimethylrhodamine] 511 nm

# query: ABSORPTION λMAX of entry O=C(O)c1ccc2c(c1)C(=O)OC21c2ccc(NCC(F)(F)F)c(S(=O)(=O)O)c2Oc2c1ccc(NCC(F)(F)F)c2S(=O)(=O)O [Compound 17] 511 nm

# query: ABSORPTION λMAX of entry Nc1c(F)cc2c(c1S(=O)(=O)O)Oc1c(cc(F)c(N)c1S(=O)(=O)O)C21OC(=O)c2ccccc21 [Compound 12, 2,7-Difluoro-4,5-disulforhodamine] 498 nm

# query: ABSORPTION λMAX of entry CN(CCC(=O)O)C(=O)c1ccccc1-c1c2ccc(=NCC(F)(F)F)cc-2oc2cc(NCC(F)(F)F)ccc12.Cl [Compound 14a] 512 nm

# query: ABSORPTION λMAX of entry COC(=O)CCN(C)C(=O)c1ccccc1-c1c2ccc(=NCC(F)(F)F)cc-2oc2cc(NCC(F)(F)F)ccc12 [Compound 44-Me] 512^b nm

---

experiment: Ground state depletion (GSDIM) pump-probe measurements in PVA matrix; assay type: physicochemical; conditions: PVA matrix table
Please respond with reported λex for every item in the list.

# query: λex of entry CN(CCC(=O)O)C(=O)c1ccccc1-c1c2ccc(=NCC(F)(F)F)c(S(=O)(=O)O)c-2oc2c(S(=O)(=O)O)c(NCC(F)(F)F)ccc12 [Compound 16a] 512 nm

# query: λex of entry Nc1c(F)cc2c(c1S(=O)(=O)O)Oc1c(cc(F)c(N)c1S(=O)(=O)O)C21OC(=O)c2ccccc21 488 nm

# query: λex of entry COC(=O)CCN(C)C(=O)c1ccccc1-c1c2ccc(=NCC(F)(F)F)cc-2oc2cc(NCC(F)(F)F)ccc12 512 nm

# query: λex of entry O=C(O)c1ccc2c(c1)C(=O)OC21c2ccc(NCC(F)(F)F)c(S(=O)(=O)O)c2Oc2c1ccc(NCC(F)(F)F)c2S(=O)(=O)O 501 nm
